# Test system: MDA-MB-468 breast
# TEST_SUMMARY: NCI tumour cell line growth inhibition, 48 h
Use Yes when the recorded TGI is no lower than 4 µM; use No when it is lower.

CCOCCOCCOCCOCCOCCOCCOCCOCCOCCO (tested in a mixture with another compound) = No
Cc1ccc(S(=O)(=O)c2nc(S(=O)(=O)c3ccc(C)cc3)c(Cl)s2)cc1 = Yes
COc1ccc2nc3ccccc3c(NCCNCC(C)O)c2c1 (configuration not stated) = No
CN1CCN(c2ccc(NC3=CC(=O)c4ncncc4C3=O)cc2)CC1 = No
COc1ccc2c(c1)-c1c(c3cc(OC)ccc3n(CCN(C)C)c1=O)C2=O = Yes
Fc1ccc(Nc2nc(Nc3ccc(-c4nc5ccccc5[nH]4)cc3)c3cn[nH]c3n2)cc1 = No
CN(C)c1ccc2[nH]c3c(C(N)=O)cc(=O)c(=O)c=3oc2c1 = Yes

###

TGI listing for selected molecules.
# Test system: MDA-MB-468 breast
# TEST_SUMMARY: NCI tumour cell line growth inhibition, 48 h
QUANTITY_MEASURED: TGI (µM)

C=C(C)C(=O)Nc1ccc(-c2c(-c3ccc(Oc4nccc(C)n4)c(F)c3)c3c(N)ncnc3n2C)cc1 = 6.83
O=C1/C(=C/c2ccc([N+](=O)[O-])o2)Oc2ccc(Cl)cc21 = 3.45
COc1cnccc1Nc1nc(-c2nn(Cc3c(F)cc(OCCO)cc3F)c3ccccc23)ncc1OC = 10.6
COc1ccc(-c2[nH]ncc2Nc2cc(OC)c(OC)c(OC)c2)cc1 = 52.3
COC(=O)CC1=C(C)/C(=C/c2[nH]c(-c3ccc[nH]3)cc2OC)N=C1C = 1.76
CCOC(=O)/C=C1/SC(=Nc2ccc(C#N)cc2)N(Cc2ccco2)C1=O = 14.2
COc1ccc([I+]c2ccc(OC)cc2)cc1 = 17.9
C(=N\Nc1ccc2ccccc2n1)/c1ccccn1 = 2.46

###

# Tested on: MDA-MB-468 breast
# TEST_SUMMARY: NCI tumour cell line growth inhibition, 48 h; in the data active = GI50 below about 0.43 µM; inactive = the rest
Classes used: active, inactive

CC/C=C\C[C@H]1C/C=C2/C(=O)C(Cl)=C[C@@H]2C/C=C\CCCC(=O)O1 = active
C=C(C)C(=O)Nc1ccc(-c2c(-c3ccc(Oc4nccc(C)n4)c(F)c3)c3c(N)ncnc3n2C)cc1 = inactive
COc1ccc(-c2c(-c3ccc(C#N)c(F)c3)nc(N3CCC(N)CC3)n(C)c2=O)cc1F = inactive
C(=N\Nc1ccc2ccccc2n1)/c1ccccn1 = active
COc1ccc2nc3ccccc3c(NCCNCC(C)O)c2c1 (stereo unspecified) = active
O=C(CI)Nc1ccc(Br)cc1 = inactive
Oc1[nH]c2ccccc2c1C=Nc1ccc(-n2cncn2)cc1 = inactive
CCC(=O)Nc1nnc(Cc2ccc(OC)c(OC)c2)s1 = inactive
Cc1ccc(S(=O)(=O)c2nc(S(=O)(=O)c3ccc(C)cc3)c(Cl)s2)cc1 = inactive
O=C1NC(=NCCc2ccc(Br)cc2)S/C1=C\c1ccc2ncccc2c1 = inactive
COc1cc2c3c(n(CCCN4CCC[C@@H]4CO)c(=O)c2cc1OC)-c1cc2c(cc1C3=O)OCO2 = active
